Origin of values: ChEMBL document CHEMBL1159098

Species on record: Homo sapiens
assay.details: Selectivity for human MAOB over human MAOA
reported.metric: Ratio IC50

Solved entries:
COc1ccc(-c2cc(=S)c3ccccc3o2)cc1 : > 208
COc1ccc(C2CC(=O)c3ccc(OC)cc3O2)cc1 (racemic) [LIQUIRITIGENIN DIMETHYL ETHER] : > 14
COc1ccc2c(c1)OC(c1ccc(C)cc1)CC2=O (racemic) : > 182
COc1ccc(-c2cc(=S)c3ccc(OC)cc3o2)cc1 : > 30
O=C1CC(c2ccccc2)Oc2cc(F)ccc21 (racemic) : > 27

Consider the record given below.
Prompt: Which Ratio IC50 value is on record for O=C1CC(c2ccc(F)cc2)Oc2cc(F)ccc21 (racemic) ?
Completion: > 149
